target: OR4S2 (Homo sapiens, UniProt Q8NH73, A290K); construct: Improved functional expression of modified OR-genes containing the truncated, optimized C-terminus; assay: cell-based; settings: wild-type
Sequence (Q8NH73 with tags, fused parts or gaps A290K): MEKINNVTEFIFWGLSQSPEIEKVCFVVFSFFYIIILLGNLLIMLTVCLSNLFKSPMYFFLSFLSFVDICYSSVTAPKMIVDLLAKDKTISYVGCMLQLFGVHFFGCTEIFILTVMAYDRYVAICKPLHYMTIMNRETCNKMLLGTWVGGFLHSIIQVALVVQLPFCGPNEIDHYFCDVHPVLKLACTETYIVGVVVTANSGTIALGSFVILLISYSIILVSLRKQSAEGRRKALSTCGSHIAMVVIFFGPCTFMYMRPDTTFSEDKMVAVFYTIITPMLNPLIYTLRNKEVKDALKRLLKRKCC
measured-endpoint: EC50

Entry c1ccc2scnc2c1 : reported EC50 = ?
137 µM

====

Target: OR7C1 (Homo sapiens, UniProt O76099, D296E/G302K/M297V/R299D/T295K/V126I)
Construct: Improved functional expression of modified OR-genes containing the truncated, optimized C-terminus; expressed in transfected cells; host or cells: HEK293T stably expressing human RTP1S(V227I) and RTP2(L220R)
Sequence (O76099 with tags, fused parts or gaps V126I/T295K/D296E/M297V/R299D/G302K): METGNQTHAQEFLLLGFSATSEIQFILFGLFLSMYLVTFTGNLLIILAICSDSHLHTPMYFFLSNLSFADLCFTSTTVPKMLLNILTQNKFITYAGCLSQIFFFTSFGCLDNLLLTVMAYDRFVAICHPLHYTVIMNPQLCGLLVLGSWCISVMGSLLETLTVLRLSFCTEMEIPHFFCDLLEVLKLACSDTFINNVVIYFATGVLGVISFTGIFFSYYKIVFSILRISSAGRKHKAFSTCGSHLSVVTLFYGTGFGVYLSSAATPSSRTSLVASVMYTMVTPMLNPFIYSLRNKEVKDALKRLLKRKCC
Test: CRE-luciferase assay, HEK293T cells expressing OR7C1 (wild-type / modified C-terminus)
Assay type: cell-based
Conditions: OR7C1 variant, 1 μM Ambermax
measured-endpoint: % of the activation by the optimized sequence RNKEVKDALKRLLKRKCC (%)
Form entry: value (%) — number only.

SEQ ID NO: 125 (RNKEVKRALKRLLKRKRF; source 1..18: note = C-terminal domain sequence) | 254.2
SEQ ID NO: 108 (RNKQVKDALKRLLKRKCC; source 1..18: note = C-terminal domain sequence) | 42.0
SEQ ID NO: 127 (RNKEVKKALKRLLKRKRR; source 1..18: note = C-terminal domain sequence) | 308.5
SEQ ID NO: 95 (RNKEVKVALKRLLKRKCC; source 1..18: note = C-terminal domain sequence) | 122.1
SEQ ID NO: 100 (RNKEVKDALRRLLKRKCC; source 1..18: note = C-terminal domain sequence) | 86.0
SEQ ID NO: 196 (RNKEVKDALKRLKKRKCC; source 1..18: note = C-terminal domain sequence) | 5.7

Reported % of the activation by the optimized sequence RNKEVKDALKRLLKRKCC, substance SEQ ID NO: 93 (RNKEVKNALKRLLKRKCC; source 1..18: note = C-terminal domain sequence) : ____
95.3

Could you tell me which % of the activation by the optimized sequence RNKEVKDALKRLLKRKCC is on file for SEQ ID NO: 86: optimized C-terminal sequence fused after TM7 of the OR of the assay (RNKEVKDALKRLLKRKCC; source 1..18: note = C-terminal domain sequence) ?
100

Quick check: % of the activation by the optimized sequence RNKEVKDALKRLLKRKCC of SEQ ID NO: 130 (RNKEVKKALKRLLKRKFK; source 1..18: note = C-terminal domain sequence) ?
286.4

Given SEQ ID NO: 190 (RNKEVKDGLKRLLKRKCC; source 1..18: note = C-terminal domain sequence) , state its recorded % of the activation by the optimized sequence RNKEVKDALKRLLKRKCC.
4.6

Consider the substance shown here: SEQ ID NO: 107 (RNKDVKDALKRLLKRKCC; source 1..18: note = C-terminal domain sequence) What is its recorded % of the activation by the optimized sequence RNKEVKDALKRLLKRKCC?
53.2

State the recorded % of the activation by the optimized sequence RNKEVKDALKRLLKRKCC for this entry: SEQ ID NO: 157 (RNKEVKDALKRLLKRKCRRRRR; source 1..22: note = C-terminal domain sequence)
204.3

I would be grateful if you could share the reported % of the activation by the optimized sequence RNKEVKDALKRLLKRKCC for SEQ ID NO: 187 (RTKEVKDALKRLLKRKCC; source 1..18: note = C-terminal domain sequence) .
3.3
